# Tested on: Escherichia coli TOP10;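 also: peptides expressed intracellularly from a pBAD plasmid library in pooled LB shake-flask culture, induced with 0.3% L-arabinose, DNA abundance read by NGS, three biological replicates, DESeq2 with apeglm shrinkage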
# METHOD SUMMARY: shrunken log2 fold change of peptide-encoding DNA abundance (4.5 h post-induction vs induction); higher = less antimicrobial activity (less host growth inhibition)
# ASSAY SETUP: time post-induction: 4.5 h; library: site-saturation at positions 5, 18, 19, 20
Outcome label depends on shrunken log2 fold change relative to -0.1: at/above gives Met, below gives Not met.

Consider the worked cases shown below.
RRIRGRPPRLPRPRPRPNFPPRP : Met
RRIRLRPPRLPRPRPRPYLYPRP : Not met
RRIRWRPPRLPRPRPRPHIPPRP : Not met

Prompt: Form field: shrunken log2 fold change at least -0.1? Entry: RRIRQRPPRLPRPRPRPAYAPRP
Response: Not met

Prompt: State whether the measured shrunken log2 fold change reaches -0.1, counting equality as reaching it, for RRIRIRPPRLPRPRPRPGSPPRP
Response: Not met

Prompt: Please tell me: is the sequence RRIRYRPPRLPRPRPRPWGRPRP at or over -0.1 in terms of shrunken log2 fold change?
Response: Not met

Prompt: // inclusive: shrunken log2 fold change at least -0.1? input: RRIRFRPPRLPRPRPRPQFLPRP
Response: Not met

Prompt: Determine whether measured shrunken log2 fold change meets or exceeds -0.1 for RRIRFRPPRLPRPRPRPLHKPRP
Response: Not met

Prompt: Is the recorded value of shrunken log2 fold change equal to or greater than -0.1 for this sequence? RRIRDRPPRLPRPRPRPGQQPRP
Response: Met

Prompt: Say whether RRIRVRPPRLPRPRPRPWCFPRP shows shrunken log2 fold change of -0.1 or more.
Response: Met

Prompt: Exam item: decide whether the reported shrunken log2 fold change for RRIRPRPPRLPRPRPRPNKPPRP is at least -0.1.
Response: Met

Prompt: Item RRIRCRPPRLPRPRPRPWGEPRP with shrunken log2 fold change of -0.1 or above?
Response: Met

Prompt: Please tell me: is the sequence RRIRDRPPRLPRPRPRPNKYPRP at or over -0.1 in terms of shrunken log2 fold change?
Response: Not met

Prompt: Hi team, for RRIRDRPPRLPRPRPRPVEVPRP , is the recorded shrunken log2 fold change at or above -0.1?
Response: Met

Prompt: Kindly determine if shrunken log2 fold change recorded for RRIRTRPPRLPRPRPRPYNRPRP is above or exactly -0.1.
Response: Met

Prompt: Textbook exercise: given the entry RRIRRRPPRLPRPRPRPSYKPRP , state whether its shrunken log2 fold change is greater than or equal to -0.1.
Response: Not met

Prompt: API: above_or_equal(metric=shrunken log2 fold change, cutoff=-0.1) for item RRIRCRPPRLPRPRPRPAHFPRP
Response: Met

Prompt: Is reported shrunken log2 fold change greater than or equal to -0.1 here: RRIRLRPPRLPRPRPRPQWRPRP
Response: Met

Prompt: Given the entry RRIRPRPPRLPRPRPRPFSQPRP , answer whether its shrunken log2 fold change meets or surpasses -0.1.
Response: Not met
